species: Rattus norvegicus; assay: Open TG-GATES - Regimen: Daily Repeat; format: toxicity, organism-based, Sprague-Dawley; design: regimen Daily Repeat, gender Male, age 6 weeks; conditions: in vivo, po, 0 mg/kg, […], tissue Plasma, route gavage, dose level Control, time 7 day
Listed here are molecules together with their documented RALB.
Please respond with the number in g/dL and leave the unit unwritten.

// worked examples, RALB included
molecule=O=NN(CCCl)C(=O)NC1CCCCC1 readout_kind=RALB experimental_value=3.9
molecule="CN(C)CCC=C1c2ccccc2COc2ccccc21 [DOXEPIN]" readout_kind=RALB experimental_value=2.7
molecule=CCc1oc2ccccc2c1C(=O)c1cc(Br)c(O)c(Br)c1 readout_kind=RALB experimental_value=3.9

Look at this molecule and give its reported RALB. CCCCc1oc2ccccc2c1C(=O)c1cc(I)c(OCCN(CC)CC)c(I)c1
3.4

Look at this molecule and give its reported RALB. CN(C)C(=N)N=C(N)N
2.7

Look at this molecule and give its reported RALB. CCC1(c2ccccc2)C(=O)NC(=O)NC1=O
3.5

Look at this molecule and give its reported RALB. CC[C@H]1[C@@H]2C[C@H]3[C@@H]4N(C)c5ccccc5[C@]45C[C@@H]([C@@H]2[C@H]5O)N3[C@@H]1O
3.7

Look at this molecule and give its reported RALB. ClC(Cl)(Cl)Cl [CARBON TETRACHLORIDE]
3.5

Look at this molecule and give its reported RALB. CC1=C(CC(=O)O)c2cc(F)ccc2/C1=C\c1ccc([S+](C)[O-])cc1 (stereo unspecified)
2.7

Look at this molecule and give its reported RALB. OCCOCCN1CCN(C(c2ccccc2)c2ccc(Cl)cc2)CC1 (stereo unspecified) [HYDROXYZINE]
2.7

Look at this molecule and give its reported RALB. CC(C)N(CCC(C(N)=O)(c1ccccc1)c1ccccn1)C(C)C (stereo unspecified) [DISOPYRAMIDE]
3
